# assay-info: xn = mol fraction of the nth substance listed, in the solute-free solvent
# assay-conditions: 313.15 K; x2 = 0.8
parameter-measured: solubility (g/100 g solution)
Could you keep your reply to the number by itself?

[[record]]
molecule = "CCOC(=O)C1=CC2(CC)CCCN3CCc4c(n1c1ccccc41)C32 (centres undefined) + CCO + O"
measured = 1.47

[[record]]
molecule = "O=c1ccc2ccccc2o1 + CO + O"
measured = 62.9

[[record]]
molecule = "O=C(CC(=O)c1ccccc1)c1ccccc1 + CC(C)O + O"
measured = 4.5


Now look at this entry.
Input: Please give the measured solubility (g/100 g solution) for this molecule: CC1(C)SC2C(NC(=O)C(NC(=O)N3CCNC3=O)c3ccccc3)C(=O)N2C1C(=O)O (centres undefined) + CO + CC(C)O
Output: 0.868
